Molecular target: T1, Apelin Receptor (APJ) stably overexpressed in CHO-K1 AGTRL1 Gi cells (human, UniProt P35414 1-380)
T1 sequence (looked up): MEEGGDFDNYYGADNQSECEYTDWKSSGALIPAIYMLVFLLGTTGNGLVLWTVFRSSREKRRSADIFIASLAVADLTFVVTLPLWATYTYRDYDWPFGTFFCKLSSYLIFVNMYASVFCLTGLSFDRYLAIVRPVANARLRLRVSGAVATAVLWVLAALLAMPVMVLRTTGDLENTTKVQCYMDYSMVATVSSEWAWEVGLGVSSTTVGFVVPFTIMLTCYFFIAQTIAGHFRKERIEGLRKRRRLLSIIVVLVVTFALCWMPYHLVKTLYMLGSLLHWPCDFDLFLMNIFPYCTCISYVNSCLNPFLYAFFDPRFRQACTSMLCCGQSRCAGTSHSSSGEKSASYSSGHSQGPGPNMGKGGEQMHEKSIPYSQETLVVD
Experiment: cell-based or functional assay
Non-standard residues stand in square brackets, D forms with d. No end group written: not given here.
In this section, each of the binders is paired with its reported cAMP levels, Percent of Pyr-Apelin-13 Control Activity (10 µM peptide, 10 µM forskolin).

Past entries and their recorded results:
q: Requested field: cAMP levels, Percent of Pyr-Apelin-13 Control Activity (10 µM peptide, 10 µM forskolin). Item: RMMGMVFQ [SEQ ID NO 51]
a: 24 % of Pyr-Apelin-13 control

q: For RRMMGMV [SEQ ID NO 56] , what is its reported cAMP levels, Percent of Pyr-Apelin-13 Control Activity (10 µM peptide, 10 µM forskolin)?
a: -2 % of Pyr-Apelin-13 control

q: For RRMMGMVF [SEQ ID NO 57] , what is its reported cAMP levels, Percent of Pyr-Apelin-13 Control Activity (10 µM peptide, 10 µM forskolin)?
a: -1 % of Pyr-Apelin-13 control

q: Which cAMP levels, Percent of Pyr-Apelin-13 Control Activity (10 µM peptide, 10 µM forskolin) is reported for this binder? RRXXGXVFQCLCGA ((Nle) norleucine at positions 3, 4 and 6; (dA) D-alanine at position 14) [SEQ ID NO 18]
a: 30 % of Pyr-Apelin-13 control

q: Which cAMP levels, Percent of Pyr-Apelin-13 Control Activity (10 µM peptide, 10 µM forskolin) value is on record for RRMMGMVYQCLEG[dA] [SEQ ID NO 29] ?
a: 21 % of Pyr-Apelin-13 control

q: Which cAMP levels, Percent of Pyr-Apelin-13 Control Activity (10 µM peptide, 10 µM forskolin) is reported for this binder? RRMMGMVAQCLEG[dA] [SEQ ID NO 30]
a: 31 % of Pyr-Apelin-13 control

q: Which cAMP levels, Percent of Pyr-Apelin-13 Control Activity (10 µM peptide, 10 µM forskolin) is listed for RXLLGLVFQSLCGA ((AIB) aminoisobutyric acid at position 2; (dA) D-alanine at position 14) [SEQ ID NO 35] ?
a: 8 % of Pyr-Apelin-13 control

New cases:
q: // lookup cAMP levels, Percent of Pyr-Apelin-13 Control Activity (10 µM peptide, 10 µM forskolin) for KRRLLGLVFQSLCGA ((PEG12) on the N-terminal K (position 1); (dA) D-alanine at position 15) [SEQ ID NO 37]
a: 53 % of Pyr-Apelin-13 control
